- Test system: off-target integration sites
- procedureText: Off-target oligo insertion based assay in primary human hepatocytes (Table 30)
- Type: cell-based
- measurementContext: TTR sgRNAs in PHH, 100 ng Cas9 mRNA, 25 nM sgRNA, 12.5 nM donor oligo
Strand notation (5' to 3'): a small letter for the sugar, then the base; units joined by * are phosphorothioate-linked, units joined directly phosphodiester-linked; [ ] holds rarer units or linkages, { } end groups; capitals alone tell only the bases. m = 2'-O-methyl; r = 2'-OH (RNA)
Catalogue of # Sites in PHH values

molecule	# Sites in PHH
G000481: TTR sgRNA modified sequence, Human, SEQ ID No. 88; guide sequence of CR003345 (nucleic acid) guide: mU*mC*mU*rArGrArArCrUrUrUrGrArCrCrArUrCrArGrGrUrUrUrUrArGrAmGmCmUmAmGmAmAmAmUmAmGmCrArArGrUrUrArArArArUrArArGrGrCrUrArGrUrCrCrGrUrUrArUrCrAmAmCmUmUmGmAmAmAmAmAmGmUmGmGmCmAmCmCmGmAmGmUmCmGmGmUmGmCmU*mU*mU*mU	0

**Q:** Return # Sites in PHH (reported value) for this molecule: G000571: TTR sgRNA modified sequence, Human, SEQ ID No. 112; guide sequence of CR005301 (nucleic acid) guide: mG*mU*mC*rArCrArGrArArArCrArCrUrCrArCrCrGrUrGrUrUrUrUrArGrAmGmCmUmAmGmAmAmAmUmAmGmCrArArGrUrUrArArArArUrArArGrGrCrUrArGrUrCrCrGrUrUrArUrCrAmAmCmUmUmGmAmAmAmAmAmGmUmGmGmCmAmCmCmGmAmGmUmCmGmGmUmGmCmU*mU*mU*mU
**A:** 1

Provenance of the data: patent US11795460B2
